These entries and their values trace back to ChEMBL document CHEMBL1157348.

- System: Histamine H1 receptor (Homo sapiens)
- Sequence (P35367 whole entry): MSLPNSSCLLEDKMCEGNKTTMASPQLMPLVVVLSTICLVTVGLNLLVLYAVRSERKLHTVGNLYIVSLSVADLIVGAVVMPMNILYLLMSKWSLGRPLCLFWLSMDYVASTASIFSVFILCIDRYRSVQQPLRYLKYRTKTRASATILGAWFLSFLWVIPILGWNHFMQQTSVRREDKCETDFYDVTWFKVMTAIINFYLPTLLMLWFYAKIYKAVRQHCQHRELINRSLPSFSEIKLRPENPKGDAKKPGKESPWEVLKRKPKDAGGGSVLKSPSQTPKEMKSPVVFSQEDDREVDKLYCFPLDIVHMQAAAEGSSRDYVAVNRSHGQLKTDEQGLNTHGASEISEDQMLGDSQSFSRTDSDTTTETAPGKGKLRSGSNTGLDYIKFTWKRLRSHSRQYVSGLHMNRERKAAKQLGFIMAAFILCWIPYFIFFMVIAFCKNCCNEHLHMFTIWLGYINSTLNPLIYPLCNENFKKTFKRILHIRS
- Assay Details: Displacement of [3H]mepyramine from human histamine H1 receptor
- Setup Conditions: read-out: Ki
pKi: −log10 of the molar value.

Smiles Representation	pKi
CN[C@@H](C(=O)N(C)[C@H]1CC[C@@]2(C)C(=CC[C@H]3[C@@H]4CC[C@@H]5[C@H](C)N(C)C[C@@]54CC[C@@H]32)C1)C(C)C	< 5.00

---

- System: Histamine H3 receptor (Rattus norvegicus, UniProt Q9QYN8)
- Sequence (Q9QYN8 whole entry): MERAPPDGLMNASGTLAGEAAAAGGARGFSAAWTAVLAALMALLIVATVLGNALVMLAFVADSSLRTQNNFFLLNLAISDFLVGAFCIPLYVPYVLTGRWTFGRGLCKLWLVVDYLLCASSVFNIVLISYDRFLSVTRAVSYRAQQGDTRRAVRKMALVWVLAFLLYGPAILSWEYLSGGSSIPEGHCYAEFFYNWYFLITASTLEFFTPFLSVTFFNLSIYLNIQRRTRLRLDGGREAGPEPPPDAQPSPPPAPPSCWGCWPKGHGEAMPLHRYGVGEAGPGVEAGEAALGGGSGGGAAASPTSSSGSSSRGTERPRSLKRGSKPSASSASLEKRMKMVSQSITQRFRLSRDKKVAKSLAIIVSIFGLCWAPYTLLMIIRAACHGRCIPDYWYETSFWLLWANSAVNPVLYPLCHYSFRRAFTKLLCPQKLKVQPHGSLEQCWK
- Assay Details: Displacement of [3H]NAMH from rat full length histamine H3 receptor expressed in rat C6 cells
- Format: cell-based
- Setup Conditions: read-out: Ki
Reported Ki values follow for various compounds

Compound	Ki [nM]
C[C@H]1[C@H]2CC[C@H]3[C@@H]4CC=C5C[C@@H](N(C)C(=O)OCC(Cl)(Cl)Cl)CC[C@]5(C)[C@H]4CC[C@]23CN1C	7.91
CN1C[C@]23CC[C@H]4[C@@H](CC=C5C[C@@H](N(C)C)CC[C@@]54C)[C@@H]2CC[C@@H]3C1=O	1000
NCCC(=O)NCCc1c[nH]cn1 [CARCININE]	294
CN[C@@H](C(=O)N(C)[C@H]1CC[C@@]2(C)C(=CC[C@H]3[C@@H]4CC[C@@H]5[C@H](C)N(C)C[C@@]54CC[C@@H]32)C1)C(C)C	2.57
